Assay: 12mer Tm study
Assay type: binding
Conditions: change in Tm per modification
Source text: All internucleoside linkages are phosphodiester and all nucleosides not followed by a subscript are 2′-deoxyribonucleosides. The nucleosides followed by a subscript are defined below.
[αh] = substituted alpha-L-bicyclic nucleoside, publication subscript αh; [αm] = substituted alpha-L-bicyclic nucleoside, publication subscript αm; [αg] = code of the source, not defined here; d = 2'-deoxy (DNA)
quantityName: ΔTm/mod (° C.)

// solved cases for ΔTm/mod (° C.) follow
substance="07/449246: 12mer GCGTTUαhTTTGCT, all linkages phosphodiester (GCGTTUTTTGCT; sugars from the 5' end d5 [αh]1 d6, all phosphodiester, methylation of C not given here)" quantityname="ΔTm/mod (° C.)" experimentalvalue="+3.4 °C"
substance="07/454310: 12mer GCGTTUαgTαgTTGCT, all linkages phosphodiester (GCGTTUTTTGCT; sugars from the 5' end d5 [αg]2 d5, all phosphodiester, methylation of C not given here)" quantityname="ΔTm/mod (° C.)" experimentalvalue="+4.2 °C"

Below: the item to evaluate.
Query 07/454308: 12mer GCGTTUαmTαmTTGCT, all linkages phosphodiester (GCGTTUTTTGCT; sugars from the 5' end d5 [αm]2 d5, all phosphodiester, methylation of C not given here) yields ΔTm/mod (° C.) of +4.8 °C

====

Test: 12mer Tm study
Assay type: binding
Conditions: all linkages phosphodiester
[αh] = substituted alpha-L-bicyclic nucleoside, publication subscript αh; [αm] = substituted alpha-L-bicyclic nucleoside, publication subscript αm; [αg] = code of the source, not defined here; d = 2'-deoxy (DNA)
Listed substances paired with reported Tm (° C.)
Hi! Could you send only the number? It should be in °C, unit omitted.

A selection of reference data follows.
substance="07/454307: 12mer GCGTTUαmTTTGCT, all linkages phosphodiester (GCGTTUTTTGCT; sugars from the 5' end d5 [αm]1 d6, all phosphodiester, methylation of C not given here)" quantityname="Tm (° C.)" unitannotation=°C experimentalvalue=51.3
substance="07/449246: 12mer GCGTTUαhTTTGCT, all linkages phosphodiester (GCGTTUTTTGCT; sugars from the 5' end d5 [αh]1 d6, all phosphodiester, methylation of C not given here)" quantityname="Tm (° C.)" unitannotation=°C experimentalvalue=49.0

// next entry
Lab note: measured Tm (° C.) of 07/454309: 12mer GCGTTUαgTTTGCT, all linkages phosphodiester (GCGTTUTTTGCT; sugars from the 5' end d5 [αg]1 d6, all phosphodiester, methylation of C not given here) was 49.7
